# credit: patent US20090118331A1

ASSAY INFO: clinical
REPORTED CONDITIONS: human, in vivo, 15 mg, AUC(0-∞), epimer in plasma; individual human subjects; sublingual lobeline 15.0 mg
VALUE TYPE: AUC(0-inf) (ng·h/mL)
Numbers only here, please. The scale is ng·h/mL.

[ask] Entry under review: CN1[C@H](CC(=O)c2ccccc2)CCC[C@H]1C[C@H](O)c1ccccc1 (single isomer, unassigned; epimer 2) [Epimer] . Reported AUC(0-inf)?
[reply] 17.3

---

ASSAY INFO: Pharmacokinetics of lobeline and epimer in human subjects after sublingual lobeline administration (7.5, 15, 30 mg)
REPORTED CONDITIONS: human, in vivo, 30 mg
Source text: The pharmacokinetics of lobeline and lobeline epimer were examined in eight human subjects (Sub) after sublingual lobeline administration.
VALUE TYPE: AUC(0-inf) (ng·h/mL)
Numbers only here, please. The scale is ng·h/mL.

[ask] Entry under review: CN1[C@@H](CC(=O)c2ccccc2)CCC[C@H]1C[C@H](O)c1ccccc1 . Reported AUC(0-inf)?
[reply] 8.02
